This collection of values is drawn from patent US20180015100A1.

- Protocol description: clinical
- Experimental setup: human, in vivo, po, 400 mg, Cmax
Assay metric: Cmax (µg/mL)

[[record]]
compound = "Nc1nc(/C(=C/CC(=O)O)C(=O)N[C@@H]2C(=O)N3C(C(=O)O)=CCS[C@H]23)cs1 [Ceftibuten, ceftibuten]"
assay_metric = "Cmax"
value_observed = 17.9


* * *

- Protocol description: clinical
- Experimental setup: human, in vivo, po, 400 mg, AUCinf
Assay metric: AUC(0-inf)

[[record]]
compound_smiles = "Nc1nc(/C(=C/CC(=O)O)C(=O)N[C@@H]2C(=O)N3C(C(=O)O)=CCS[C@H]23)cs1"
assay_metric = "AUC(0-inf)"
value_observed = "93000 ng·h/mL"


* * *

Quick list: MIC per entry.
- System: Escherichia coli isolates
- Protocol description: MIC of cephalosporins alone or with clavulanate/tazobactam
- Assay type: cell-based
- Experimental setup: AECO1147 (CTX-M-15), clavulanate 2:1, tazobactam 4 μg/mL
Assay metric: MIC (µg/mL)

[[record]]
compound = "O=C(O)[C@H]1/C(=C/CO)O[C@@H]2CC(=O)N21 [Clavulanate, clavulanic acid]"
relation_operator = "="
value_observed = 32

[[record]]
compound = "CO/N=C(\\C(=O)N[C@@H]1C(=O)N2C(C(=O)[O-])=C(C[N+]3(C)CCCC3)CS[C@H]12)c1csc(N)n1 [Cefepime, cefepime]"
relation_operator = "="
value_observed = 4

[[record]]
compound = "Nc1nc(/C(=C/CC(=O)O)C(=O)N[C@@H]2C(=O)N3C(C(=O)O)=CCS[C@H]23)cs1"
relation_operator = "="
value_observed = 4

[[record]]
compound = "C[C@]1(Cn2ccnn2)[C@H](C(=O)O)N2C(=O)C[C@H]2S1(=O)=O"
relation_operator = ">"
value_observed = 64

[[record]]
compound = "COCC1=C(C(=O)O)N2C(=O)[C@@H](NC(=O)/C(=N\\OC)c3csc(N)n3)[C@H]2SC1"
relation_operator = ">"
value_observed = 64


* * *

- Tested on: Klebsiella pneumoniae isolates
- Protocol description: MIC of cephalosporins alone or with clavulanate/tazobactam
- Format: cell-based
- Experimental setup: AKPN1166 (CTX-M-14, SHV-12), clavulanate 2:1, tazobactam 4 μg/mL
Assay metric: MIC (µg/mL)

[[record]]
compound = "Nc1nc(/C(=C/CC(=O)O)C(=O)N[C@@H]2C(=O)N3C(C(=O)O)=CCS[C@H]23)cs1"
assay_metric = "MIC"
relation_operator = "="
value_observed = 4

[[record]]
compound = "CO/N=C(\\C(=O)N[C@@H]1C(=O)N2C(C(=O)[O-])=C(C[N+]3(C)CCCC3)CS[C@H]12)c1csc(N)n1 [Cefepime, cefepime]"
assay_metric = "MIC"
relation_operator = "="
value_observed = 4

[[record]]
compound = "C[C@]1(Cn2ccnn2)[C@H](C(=O)O)N2C(=O)C[C@H]2S1(=O)=O"
assay_metric = "MIC"
relation_operator = ">"
value_observed = 64

[[record]]
compound = "O=C(O)[C@H]1/C(=C/CO)O[C@@H]2CC(=O)N21 [Clavulanate, clavulanic acid]"
assay_metric = "MIC"
relation_operator = "="
value_observed = 32

[[record]]
compound = "COCC1=C(C(=O)O)N2C(=O)[C@@H](NC(=O)/C(=N\\OC)c3csc(N)n3)[C@H]2SC1"
assay_metric = "MIC"
relation_operator = ">"
value_observed = 64

[[record]]
compound = "C=CC1=C(C(=O)O)N2C(=O)[C@@H](NC(=O)/C(=N\\OCC(=O)O)c3csc(N)n3)[C@H]2SC1"
assay_metric = "MIC"
relation_operator = ">"
value_observed = 64

